TEST_TARGET: ER-β (Homo sapiens, UniProt Q92731)
Sequence (Q92731 264-498 limits assumed, species assumed): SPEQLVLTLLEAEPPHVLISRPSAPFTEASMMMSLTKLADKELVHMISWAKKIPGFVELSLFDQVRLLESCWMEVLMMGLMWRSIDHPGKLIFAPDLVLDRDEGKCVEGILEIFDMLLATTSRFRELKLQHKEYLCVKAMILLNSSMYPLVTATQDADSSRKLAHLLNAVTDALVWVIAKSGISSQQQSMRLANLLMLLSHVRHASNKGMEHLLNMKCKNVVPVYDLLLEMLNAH
METHOD_NOTES: ER-β ligand binding domain competitive binding with [3H]Estradiol
Catalogue of Ki readings, one per entry.
OUTCOME_MEASURE: Ki

> print(dat)
                                   molecule  outcome.measure    reading
1  COc1ccc(-c2cn(-c3ccc(CO)cc3)c(=O)c3ccc(OC)cc23)cc1 [Compound 10]               Ki  > 2200 nM
2  O=c1c2ccc(O)cc2c(-c2ccc(O)cc2)cn1-c1ccc(CBr)cc1 [Compound 11]               Ki  > 2200 nM
3  O=c1c2ccc(O)cc2c(-c2ccc(O)cc2)cn1-c1ccc(CO)cc1 [Compound 14]               Ki  > 2200 nM
4  COc1ccc(-c2cn(-c3ccc(O)cc3)c(=O)c3c(O)cc(O)cc23)cc1 [Compound 15g]               Ki    2.77 nM
5  O=c1c2ccc(O)cc2c(-c2ccc(O)cc2)cn1-c1ccc(O)cc1 [Compound 6]               Ki    56.2 nM
6  COc1ccc(-n2cc(-c3ccc(C(F)(F)F)cc3)c3cc(OC)ccc3c2=O)cc1 [Compound 35]               Ki  > 2200 nM
7  O=c1c2ccc(O)cc2c(-c2ccc(C(F)(F)F)cc2)cn1-c1ccc(F)cc1 [Compound 34]               Ki  > 2200 nM
8  CCOC(=O)/C=C/c1cn(-c2ccc(OC)cc2)c(=O)c2c(O)cc(OC)cc12 [Compound 15j]               Ki  > 2200 nM
